Below, each of the molecules is paired with its reported inhibition value.
Experiment: HepG2 cytotoxicity, primary screen, cytotoxicity control for P. falciparum antimalarial project, cell-based, ATP luminescence (AID 2303);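 also: 0% = DMSO wells and 100% = digitonin-killed cells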
Settings: HepG2 viability, 24-48 h, at 10 µM, stronger effect = higher value
assayEndpoint: inhibition (%)

molecule=O=C(NCCCCN1CCC(c2nc3ccccc3s2)CC1)c1cc2ccccc2[nH]1 reading=43
molecule=CN(C)C(=NCCCCCCN=C(NC(N)=NCc1ccc(Cl)c(Cl)c1)N(C)C)NC(N)=NCc1ccc(Cl)c(Cl)c1 reading=20
molecule="CCOc1ccc(C(C)NC(=O)C2COc3ccccc3O2)cc1OCC (centres undefined)" reading=-4
molecule=C=C(C)COc1ccc(-c2n[nH]c(C(F)(F)F)c2-c2ccccc2OC)c(O)c1 reading=19
molecule="CC(C)(C)CCN1CCC(CNC(=O)c2cc(-c3cccc(C(F)(F)F)c3)cs2)C1 (centres undefined)" reading=47
molecule="CCN(CCC1(c2ccc(Cl)c(Cl)c2)CN(C(=O)c2cc(OC)c(OC)c(OC)c2)CCO1)[C@@H]1C[C@@H]2c3ccccc3C[C@@H]21 (some centres undefined)" reading=26
molecule=O=C(c1ccc([N+](=O)[O-])o1)N1CCN(c2nc3c(F)cc(F)cc3s2)CC1 reading=-7
molecule=COc1ccc(-c2cnc(NCc3ccccc3)nc2)cc1CNC1CCN(C)CC1 reading=19
molecule=Oc1ccc2ccccc2c1CNC1CCCCCC1 reading=9
